test system: MCF-7 cells; assay: Cell cycle analysis by flow cytometry (propidium iodide); assay type: cell-based, human; conditions: MCF-7, 25 µM, 24 hours
For each record, write down the corresponding Cell cycle parameters % G0/G1, 24 hours.
One number for each entry, in %.

Field: example entries. Status: answers known.
COMPOUND: COc1ccc2c(c1OC)C(=O)O[C@@H]2[C@H]1c2c(cc3c(c2OC)OCO3)CCN1Cc1cccc(Br)c1 [Compound 6f]
SCALE_UNIT: %
Cell cycle parameters % G0/G1, 24 hours: 11.82
--
COMPOUND: COc1ccc2c(c1OC)C(=O)O[C@@H]2[C@H]1c2c(cc3c(c2OC)OCO3)CCN1Cc1ccc([N+](=O)[O-])cc1 [Compound 6c]
SCALE_UNIT: %
Cell cycle parameters % G0/G1, 24 hours: 20.72
--
COMPOUND: COc1ccc2c(c1OC)C(=O)O[C@@H]2[C@@H]1NCCc2cc3c(c(OC)c21)OCO3 [Compound 5a]
SCALE_UNIT: %
Cell cycle parameters % G0/G1, 24 hours: 13.47
--
COMPOUND: COc1ccc2c(c1OC)C(=O)O[C@@H]2[C@H]1c2c(cc3c(c2OC)OCO3)CCN1Cc1ccc(Br)cc1 [Compound 6b]
SCALE_UNIT: %
Cell cycle parameters % G0/G1, 24 hours: 19.42

Lab note: next compound to report on.
Incoming: Fill in the blank: the reported Cell cycle parameters % G0/G1, 24 hours of COc1ccc2c(c1OC)C(=O)O[C@@H]2[C@H]1c2c(cc3c(c2OC)OCO3)CCN1Cc1cccc(Cl)c1 [Compound 6e] is ____.
Outgoing: 12.84

* * *

test system: MCF-7 cells; test: Cell cycle analysis by flow cytometry (propidium iodide); type: cell-based, human; details: MCF-7, 25 µM, 72 hours
OBSERVED_PROPERTY: Cell cycle parameters % Sub-G1, 72 hours (%)
Give bare numbers, in %.

STRUCTURE_STRING: COc1ccc2c(c1OC)C(=O)O[C@@H]2[C@H]1c2c(cc3c(c2OC)OCO3)CCN1Cc1cccc(Cl)c1
Cell cycle parameters % Sub-G1, 72 hours [%]: 45.42

STRUCTURE_STRING: CCOC(=O)CN1CCc2cc3c(c(OC)c2[C@@H]1[C@H]1OC(=O)c2c1ccc(OC)c2OC)OCO3
Cell cycle parameters % Sub-G1, 72 hours [%]: 27.24

STRUCTURE_STRING: COc1ccc2c(c1OC)C(=O)O[C@@H]2[C@H]1c2c(cc3c(c2OC)OCO3)CCN1CC(C)=O
Cell cycle parameters % Sub-G1, 72 hours [%]: 48.73

Required: Cell cycle parameters % Sub-G1, 72 hours, one value per molecule below.
1. COc1cccc(CN2CCc3cc4c(c(OC)c3[C@@H]2[C@H]2OC(=O)c3c2ccc(OC)c3OC)OCO4)c1
2. COc1ccc(CN2CCc3cc4c(c(OC)c3[C@@H]2[C@H]2OC(=O)c3c2ccc(OC)c3OC)OCO4)cc1
3. COc1ccc2c(c1OC)C(=O)O[C@@H]2[C@H]1c2c(cc3c(c2OC)OCO3)CCN1Cc1ccc(Br)cc1
4. COc1ccc2c(c1OC)C(=O)O[C@@H]2[C@H]1c2c(cc3c(c2OC)OCO3)CCN1Cc1ccc([N+](=O)[O-])cc1

Outgoing:
1: 40.29; 2: 45.38; 3: 43.18; 4: 36.73

Required: Cell cycle parameters % Sub-G1, 72 hours, one value per molecule below.
1. COc1ccc2c(c1OC)C(=O)O[C@@H]2[C@H]1c2c(cc3c(c2OC)OCO3)CCN1Cc1ccccc1
2. COc1ccc2c(c1OC)C(=O)O[C@@H]2[C@H]1c2c(cc3c(c2OC)OCO3)CCN1Cc1cccc(Br)c1

Outgoing:
[44.82, 50.44]
